// note: pKi values for Adenosine receptor A2a (Homo sapiens, UniProt P29274) were reported in different studies
Quick note: pKi values are minus log10 of concentrations in mol/L.

What measured pKi goes with CN1CCN(CCOc2ccc(-c3cn4c(=O)n(-c5ccccc5)nc4c(N)n3)cc2)CC1 ?
7.07

What measured pKi goes with CNC(=O)[C@]12C[C@@H]1[C@@H](n1cnc3c(NCc4ccc(N)c(I)c4)nc(Cl)nc31)[C@H](O)[C@@H]2O ?
5.96

What measured pKi goes with O=C(Nc1nc2ccccc2n2nc(-c3ccco3)nc12)c1ccco1 ?
6.40

What measured pKi goes with Cc1cc(C)n(-c2nc(NCC(F)(F)F)cc(-n3cccn3)n2)n1 ?
7.28

What measured pKi goes with N/C(=N\C(=O)CN1C(=O)C2CCCCC2C1=O)Nc1nc2ccccc2s1 (stereo not given) ?
5.30

What measured pKi goes with Cc1ccc2c(O)cc(-c3ccccc3)nc2n1 ?
6.26

What measured pKi goes with Nc1nc2c(cnn2CCN2CCN(c3ccccc3F)CC2)c2nc(-c3ccco3)nn12 ?
9.22

What measured pKi goes with CCn1c(=O)c2[nH]c(-c3cnn(Cc4ccccc4)c3)nc2n(CC)c1=O ?
6.92

What measured pKi goes with Nc1nc(C(=O)NCc2ccnc3ccccc23)c2cccc(F)c2n1 ?
6.03

----------
// note: pKi values for UniProtKB P29274 were reported in different studies
Quick note: pKi values are minus log10 of concentrations in mol/L.

Provide the documented pKi with UniProtKB P29274 as the system for Oc1cc(-c2ccccc2)nc2nc(F)ccc12
5.57

Provide the documented pKi with UniProtKB P29274 as the system for Cn1cc2c(Cl)nc(N(C(=O)c3ccccc3)C(=O)c3ccccc3)nc2n1
4.76

Provide the documented pKi with UniProtKB P29274 as the system for COc1ccc(CNc2nc3nn(C)cc3c3nc(-c4ccco4)nn23)cc1
6.75

Provide the documented pKi with UniProtKB P29274 as the system for CCOC(=O)c1nc(NC(=O)c2ccc(C)cc2)nc2nn(C(C)C)cc12
5.64

----------
// note: Ki values for Adenosine receptor A2a (Homo sapiens) were reported in different studies
Under this convention, Y denotes Ki strictly below 60 nM and N denotes Ki at or above 60 nM.

Strictly below 60 nM: is that where Ki of COc1ccc(NC(=O)Nc2nc(-c3ccccc3)nc3nn(C)cc23)cc1 sits?
N

Strictly below 60 nM: is that where Ki of CCCn1c(=O)c2[nH]c(-c3ccc(OCC(=O)Nc4ccc(Br)cc4)cc3)nc2n(CCC)c1=O sits?
N

Strictly below 60 nM: is that where Ki of COC[C@H]1CCCN1c1cc(NC(=O)NC(C)C)nc(-n2nc(C)cc2C)n1 sits?
Y

Strictly below 60 nM: is that where Ki of CN(CCCc1ccccn1)C(=O)c1cnc2c(CNC(=O)c3nc(N)nc4c(F)cccc34)cccc2c1 sits?
Y

Strictly below 60 nM: is that where Ki of CCCn1c(=O)c2nc(-c3cnn(Cc4cccc(Cl)c4)c3)[nH]c2n(CCC)c1=O sits?
N

Strictly below 60 nM: is that where Ki of CC(=O)Nc1cc(-c2ccsc2)nc(-c2ccsc2)n1 sits?
Y

Strictly below 60 nM: is that where Ki of CCCN(CCC)S(=O)(=O)c1ccc(NC(=O)Nc2ncnc3c2ncn3C2O[C@H](C(=O)NCC)C(O)C2O)cc1 (single isomer, unassigned) sits?
N

Strictly below 60 nM: is that where Ki of CCn1c(=O)c2[nH]c(-c3ccc(OCC(=O)Nc4ccc(F)cc4)cc3)nc2n(CCCOC)c1=O sits?
Y
